target: ERα (Homo sapiens); experiment: cell-based; assay type: cell-based; conditions: maximal response as percentage of response to 10^−8 M E2, HEK293T
Sequence (P03372 whole entry): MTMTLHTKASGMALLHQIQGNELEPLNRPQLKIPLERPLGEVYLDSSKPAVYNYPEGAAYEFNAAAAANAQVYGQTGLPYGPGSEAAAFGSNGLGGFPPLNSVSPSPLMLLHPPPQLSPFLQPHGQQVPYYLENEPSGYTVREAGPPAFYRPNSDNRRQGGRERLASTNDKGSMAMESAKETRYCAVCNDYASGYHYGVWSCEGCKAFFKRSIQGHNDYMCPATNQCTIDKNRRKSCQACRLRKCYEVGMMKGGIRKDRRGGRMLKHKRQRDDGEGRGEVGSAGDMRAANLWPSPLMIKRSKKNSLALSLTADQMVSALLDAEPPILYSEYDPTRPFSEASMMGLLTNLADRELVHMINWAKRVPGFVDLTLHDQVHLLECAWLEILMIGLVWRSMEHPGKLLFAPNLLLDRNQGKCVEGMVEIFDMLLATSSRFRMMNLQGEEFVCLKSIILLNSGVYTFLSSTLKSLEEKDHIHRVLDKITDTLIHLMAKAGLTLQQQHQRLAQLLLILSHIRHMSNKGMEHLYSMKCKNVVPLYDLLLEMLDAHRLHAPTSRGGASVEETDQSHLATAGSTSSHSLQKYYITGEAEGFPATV

compound	measurement-units	Agonist Mode ERα Eff (%E2)
Cc1cc(O)cc(C)c1-c1ccc(-c2c(C)cc(O)cc2C)[se]1	%E2	−7
Oc1ccc(-c2cc(Br)c(-c3ccc(O)cc3)[se]2)cc1	%E2	69
Oc1ccc(-c2ccc(-c3ccc(O)c(Cl)c3)[se]2)cc1Cl	%E2	49
Oc1ccc(-c2cc(Br)c(-c3ccc(O)cc3F)[se]2)c(F)c1	%E2	73
Oc1ccc(-c2ccc(-c3ccc(O)cc3Cl)[se]2)c(Cl)c1	%E2	44
Oc1ccc(-c2c[se]cc2-c2ccc(O)c(F)c2)cc1F	%E2	21
Cc1cc(O)ccc1-c1c[se]cc1-c1ccc(O)cc1C	%E2	19
Cc1cc(-c2c[se]cc2-c2ccc(O)c(C)c2)ccc1O	%E2	32
Cc1cc(-c2cc(-c3ccc(O)c(C)c3)c(-c3ccc(O)c(C)c3)[se]2)ccc1O	%E2	112
Cc1cc(-c2cc(Br)c(-c3ccc(O)c(C)c3)[se]2)ccc1O	%E2	−3
Cc1cc(O)ccc1-c1cc(Br)c(-c2ccc(O)cc2C)[se]1	%E2	21
Oc1cc(-c2cc(Br)c(-c3ccc(F)c(O)c3)[se]2)ccc1F	%E2	226
Cc1cc(O)ccc1-c1ccc(-c2ccc(O)cc2C)[se]1	%E2	157
Oc1ccc(-c2ccc(-c3ccc(O)cc3)[se]2)cc1 [Compound 2a, 2,5-Bis(4-hydroxyphenyl)selenophene]	%E2	16
Oc1ccc(-c2ccc(-c3ccc(O)cc3F)[se]2)c(F)c1	%E2	68
Oc1ccc(-c2cc(Br)c(-c3ccc(O)c(Cl)c3)[se]2)cc1Cl	%E2	−23
Cc1cc(-c2cc(Br)c(-c3cc(C)c(O)c(C)c3)[se]2)cc(C)c1O	%E2	16
Oc1ccc(-c2c[se]cc2-c2ccc(O)cc2)cc1 [Compound 4a, 3,4-Bis(4-hydroxyphenyl)selenophene]	%E2	7
Oc1ccc(-c2cc(-c3ccc(O)cc3)c(-c3ccc(O)cc3)[se]2)cc1 [Compound 8a, 2,3,5-Tris(4-hydroxyphenyl)selenophene]	%E2	−4
Cc1cc(-c2ccc(-c3cc(C)c(O)c(C)c3)[se]2)cc(C)c1O	%E2	12
Oc1ccc(F)c(-c2ccc(-c3cc(O)ccc3F)[se]2)c1	%E2	25
Cc1cc(-c2ccc(-c3ccc(O)c(C)c3)[se]2)ccc1O	%E2	33
Oc1cc(-c2ccc(-c3ccc(F)c(O)c3)[se]2)ccc1F	%E2	25
Oc1ccc(-c2c[se]cc2-c2ccc(O)cc2F)c(F)c1	%E2	35
Cc1cc(-c2cc(-c3cc(C)c(O)c(C)c3)c(-c3cc(C)c(O)c(C)c3)[se]2)cc(C)c1O	%E2	74
